test: in vitro; conditions: human
measured.attribute: IC50 (µM)
Numbers only, in µM.

Recorded IC50, per entry:
compound	unit.spec	IC50
C[C@H]1[C@@H](OCC2CCC(F)(F)CC2)O[C@@H]2O[C@@]3(C)CC[C@H]4[C@H](C)CC[C@@H]1[C@@]24OO3 [Compound 106]	µM	0.1
C[C@H]1[C@@H](Oc2ccc(C(C)(C)C(=O)O)cc2)O[C@@H]2O[C@@]3(C)CC[C@H]4[C@H](C)CC[C@@H]1[C@@]24OO3 [Compound 126]	µM	5.5
CNS(=O)(=O)CCN[C@@H]1O[C@@H]2O[C@@]3(C)CC[C@H]4[C@H](C)CC[C@@H]([C@H]1C)[C@@]24OO3 [Compound 97]	µM	2.08
C[C@H]1[C@@H](OCc2c(Cl)cc(C(=O)O)cc2Cl)O[C@@H]2O[C@@]3(C)CC[C@H]4[C@H](C)CC[C@@H]1[C@@]24OO3 [Compound 177]	µM	0.66
CNC(=O)CCN[C@@H]1O[C@@H]2O[C@@]3(C)CC[C@H]4[C@H](C)CC[C@@H]([C@H]1C)[C@@]24OO3 [Compound 95]	µM	0.352

Hi there! I need IC50 for each item below, if you can.
1. C[C@H]1[C@H](OCC2CCC(F)(F)CC2)O[C@@H]2O[C@@]3(C)CC[C@H]4[C@H](C)CC[C@@H]1[C@@]24OO3 [Compound 105]
2. C[C@H]1[C@@H](OCc2ccc(C(=O)O)nc2)O[C@@H]2O[C@@]3(C)CC[C@H]4[C@H](C)CC[C@@H]1[C@@]24OO3 [Compound 13]
3. C[C@H]1[C@@H](OC[C@H]2CC[C@@H](C(=O)O)N2C)O[C@@H]2O[C@@]3(C)CC[C@H]4[C@H](C)CC[C@@H]1[C@@]24OO3 [Compound 144]
4. C[C@H]1[C@@H](OCc2cc(Cl)cc(C(=O)O)c2)O[C@@H]2O[C@@]3(C)CC[C@H]4[C@H](C)CC[C@@H]1[C@@]24OO3 [Compound 178]
5. C[C@H]1[C@H](N[C@@H](C)c2ccc(S(C)(=O)=O)cc2)O[C@@H]2O[C@@]3(C)CC[C@H]4[C@H](C)CC[C@@H]1[C@@]24OO3 [Compound 57]

0.2
1.42
14.4
4
9.89
